Every entry's value here was drawn from patent US9428487B2.

assay: Determination of log P values by HPLC on reversed-phase column (formic acid method); assay type: physicochemical; settings: reversed-phase HPLC column (C 18), pH 3.4, HPLC, reversed-phase C 18, acidic range (pH 3.4), formic acid eluents, 55° C.; read-out: logP (HCOOH)
Consider the following molecules and their measured chromatographic logP readings.
EXPERIMENTAL READOUT: chromatographic logP

• Cc1nc(-c2cccnc2)sc1C(=O)NCC(F)(F)C(F)F = 1.75
• COCN(CCF)C(=O)c1sc(-c2cccnc2)nc1C = 1.46
• Cc1nc(Cl)sc1C(=O)NCC(F)(F)F = 1.97
• Cc1nc(-c2cccnc2)sc1C(=O)NC(C)(C)C#N = 1.48
• Cc1nc(-c2cccnc2)sc1C(=O)NCC(F)(F)F = 1.63
• Cc1nc(-c2cccnc2)sc1C(=O)NCC1OCC(C)O1 (stereo not drawn) = 1.34
• Cc1nc(-c2cccnc2)sc1C(=O)NCc1nccs1 = 1.38
• Cc1nc(-c2cccnc2)sc1C(=O)NC(C)CC(F)(F)F (stereo not drawn) = 1.94
• COCN(C(=O)c1sc(-c2cccnc2)nc1C)C(C)C(=O)OC (stereo not drawn) = 1.61
• CSCCNC(=O)c1sc(-c2cccnc2)nc1C = 1.54
• Cc1nc(-c2cccnc2)sc1C(=O)N(C)CC1COCCO1 (stereo not drawn) = 1.26
• COC1(NC(=O)c2sc(-c3cccnc3)nc2C)CC1 = 1.23
